- test-system: T1, ΔN-DRH3 (Caenorhabditis elegans, UniProt Q93413 300-1119)
- T1 sequence: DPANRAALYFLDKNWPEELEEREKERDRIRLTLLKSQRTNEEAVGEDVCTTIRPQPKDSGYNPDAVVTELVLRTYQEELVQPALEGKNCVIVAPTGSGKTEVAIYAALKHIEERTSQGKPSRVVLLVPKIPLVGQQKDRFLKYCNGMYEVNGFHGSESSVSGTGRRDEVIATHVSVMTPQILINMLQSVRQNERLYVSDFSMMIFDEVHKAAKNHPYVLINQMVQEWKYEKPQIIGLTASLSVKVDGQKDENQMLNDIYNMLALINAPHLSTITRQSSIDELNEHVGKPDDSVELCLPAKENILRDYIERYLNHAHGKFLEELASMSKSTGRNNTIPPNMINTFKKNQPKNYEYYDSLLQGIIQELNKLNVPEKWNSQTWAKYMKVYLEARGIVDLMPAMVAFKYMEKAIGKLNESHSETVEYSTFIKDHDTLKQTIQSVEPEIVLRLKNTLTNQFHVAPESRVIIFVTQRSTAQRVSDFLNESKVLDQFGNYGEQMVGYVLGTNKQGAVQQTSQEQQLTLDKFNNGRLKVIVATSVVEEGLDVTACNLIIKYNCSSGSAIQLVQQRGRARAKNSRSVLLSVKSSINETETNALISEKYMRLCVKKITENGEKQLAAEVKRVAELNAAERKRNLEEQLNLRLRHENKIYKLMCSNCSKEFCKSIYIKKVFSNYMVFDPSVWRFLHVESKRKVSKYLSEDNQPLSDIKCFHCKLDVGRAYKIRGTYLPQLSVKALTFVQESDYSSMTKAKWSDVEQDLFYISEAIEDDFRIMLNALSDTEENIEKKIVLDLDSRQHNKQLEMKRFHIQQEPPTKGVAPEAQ
- assay-details: EMSA
experimental-readout: Kd (nM)
Give just the numeric value; nM need not be written.

Suppose we examine the binder dsPPP25 (dsRNA, 5' triphosphate on top strand) RNA 1: GGGUAUAGACUGACUAGGAUCUCCC RNA 2: GGGAGAUCCUAGUCAGUCUAUACCC ; what Kd value has been reported?
120
